ASSAY SYSTEM: Membrane-associated guanylate kinase, WW and PDZ domain-containing protein 3 (Homo sapiens)
Sequence (Q5TCQ9 whole entry): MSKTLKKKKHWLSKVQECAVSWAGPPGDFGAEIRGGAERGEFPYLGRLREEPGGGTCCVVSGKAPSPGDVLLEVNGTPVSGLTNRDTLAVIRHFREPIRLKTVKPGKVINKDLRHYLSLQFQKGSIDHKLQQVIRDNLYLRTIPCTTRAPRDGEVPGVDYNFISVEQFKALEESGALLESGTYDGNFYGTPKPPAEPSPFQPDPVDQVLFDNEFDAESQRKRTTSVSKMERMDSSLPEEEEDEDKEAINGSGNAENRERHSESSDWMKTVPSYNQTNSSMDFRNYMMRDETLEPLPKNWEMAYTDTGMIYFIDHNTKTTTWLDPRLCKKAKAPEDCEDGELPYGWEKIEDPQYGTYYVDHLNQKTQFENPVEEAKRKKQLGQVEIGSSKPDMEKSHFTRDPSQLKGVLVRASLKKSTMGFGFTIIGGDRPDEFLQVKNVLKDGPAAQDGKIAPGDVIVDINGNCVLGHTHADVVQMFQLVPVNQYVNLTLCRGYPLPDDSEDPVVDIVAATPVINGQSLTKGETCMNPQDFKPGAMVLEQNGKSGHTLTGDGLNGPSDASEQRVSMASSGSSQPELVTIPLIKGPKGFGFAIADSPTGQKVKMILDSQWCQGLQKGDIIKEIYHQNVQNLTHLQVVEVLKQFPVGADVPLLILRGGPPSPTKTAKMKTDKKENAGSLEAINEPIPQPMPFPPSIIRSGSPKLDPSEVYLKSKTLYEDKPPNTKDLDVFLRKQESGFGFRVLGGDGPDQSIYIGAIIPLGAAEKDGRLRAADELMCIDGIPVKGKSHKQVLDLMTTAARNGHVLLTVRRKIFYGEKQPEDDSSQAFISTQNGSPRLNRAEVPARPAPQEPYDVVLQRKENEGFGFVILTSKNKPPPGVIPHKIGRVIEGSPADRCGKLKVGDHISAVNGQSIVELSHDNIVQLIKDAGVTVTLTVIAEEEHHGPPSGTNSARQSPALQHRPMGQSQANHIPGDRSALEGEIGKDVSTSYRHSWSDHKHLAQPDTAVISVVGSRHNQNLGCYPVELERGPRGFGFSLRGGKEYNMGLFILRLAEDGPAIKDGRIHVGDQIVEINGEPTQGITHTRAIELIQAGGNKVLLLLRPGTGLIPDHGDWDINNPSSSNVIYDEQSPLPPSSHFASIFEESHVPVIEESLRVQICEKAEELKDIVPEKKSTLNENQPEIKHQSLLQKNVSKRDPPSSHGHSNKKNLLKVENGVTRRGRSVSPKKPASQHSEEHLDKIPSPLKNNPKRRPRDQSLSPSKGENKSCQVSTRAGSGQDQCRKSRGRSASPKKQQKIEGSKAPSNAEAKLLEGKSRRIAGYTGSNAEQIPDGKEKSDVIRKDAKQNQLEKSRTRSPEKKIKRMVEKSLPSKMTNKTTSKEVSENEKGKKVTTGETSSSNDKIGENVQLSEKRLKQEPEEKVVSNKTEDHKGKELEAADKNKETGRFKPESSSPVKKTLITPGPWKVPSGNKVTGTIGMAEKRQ
ASSAY DETAILS: Inhibitory concentration for MAGI-3 PDZ2 domain
Record form. Attribute: IC50. Fill in for each entry.
Please give a number only; it is taken to be in µM.

Req: Name the recorded IC50 for Ac-HTQITWV-OH .
Resp: 4.1

Req: Consider next the substance H-PFDEDQHTQITWV-OH in the same way.
Resp: 0.74

Req: Consider next the substance Ac-TQITWV-OH in the same way.
Resp: 5.2

Req: Consider next the substance H-PFDEDQHTQIAKV-OH [PFDEDQHTQIAKV] in the same way.
Resp: 14.4
